Measurement Notes: Pharmacokinetic testing of representative compounds in CD-1 mice, oral dosing
Type: in vivo
Condition Context: mouse, in vivo, po, dosed orally 10 mg/kg, analyte = dosed prodrug, mean ± SD, nd = none detected, read-out: Tmax, analyte: prodrug compound
Recorded Tmax, one value per entry.
Measure Name: Tmax

- COC(=O)O[C@@H]1CN(C)CC[C@@H]1c1c(O)cc(O)c2c(=O)cc(-c3ccccc3Cl)oc12: 15 min
- CCOC(=O)O[C@@H]1CN(C)CC[C@@H]1c1c(O)cc(O)c2c(=O)cc(-c3ccccc3Cl)oc12: 15 min
- CNC(=O)O[C@@H]1CN(C)CC[C@@H]1c1c(O)cc(O)c2c(=O)cc(-c3ccccc3Cl)oc12: 24 min
- CCNC(=O)O[C@@H]1CN(C)CC[C@@H]1c1c(O)cc(O)c2c(=O)cc(-c3ccccc3Cl)oc12: 25.2 min
